// data source = patent US6054435A

Endpoint name: log10 of MIC (log10 of the value in µg/mL)
Scale: decimal log of MIC, MIC in µg/mL.

The measured log10 of MIC that CC[C@H]1OC(=O)[C@H](C)C(=O)[C@H](C)[C@@H](O[C@@H]2O[C@H](C)C[C@H](N(C)C)[C@H]2O)[C@](C)(OC/C=C/c2cncc(Br)c2)C[C@@H](C)C(=O)[C@H](C)[C@H]2NC(=O)O[C@@]21C showed for Nocardia Asteroides ATCC9970 is -1.00

The measured log10 of MIC that CC[C@H]1OC(=O)[C@H](C)C(=O)[C@H](C)[C@@H](O[C@@H]2O[C@H](C)C[C@H](N(C)C)[C@H]2O)[C@](C)(OC/C=C/c2cnc(-c3cccnc3)s2)C[C@@H](C)C(=O)[C@H](C)[C@H]2NC(=O)O[C@@]21C showed for Nocardia Asteroides ATCC9970 is -1.70

The measured log10 of MIC that CC[C@H]1OC(=O)[C@H](C)C(=O)[C@H](C)[C@@H](O[C@@H]2O[C@H](C)C[C@H](N(C)C)[C@H]2O)[C@](C)(OCC#Cc2ccc(-c3ccc(C=O)o3)cc2)C[C@@H](C)C(=O)[C@H](C)[C@H]2NC(=O)O[C@@]21C showed for Nocardia Asteroides ATCC9970 is -1.00

The measured log10 of MIC that CC[C@H]1OC(=O)[C@H](C)C(=O)[C@H](C)[C@@H](O[C@@H]2O[C@H](C)C[C@H](N(C)C)[C@H]2O)[C@](C)(OCC#Cc2ccc(-c3ccco3)s2)C[C@@H](C)C(=O)[C@H](C)[C@H]2NC(=O)O[C@@]21C showed for Nocardia Asteroides ATCC9970 is -1.70

The measured log10 of MIC that CC[C@H]1OC(=O)[C@H](C)C(=O)[C@H](C)[C@@H](O[C@@H]2O[C@H](C)C[C@H](N(C)C)[C@H]2O)[C@](C)(OC/C=C/c2cncc(-c3ccccn3)c2)C[C@@H](C)C(=O)[C@H](C)[C@H]2NC(=O)O[C@@]21C showed for Nocardia Asteroides ATCC9970 is -1.30

The measured log10 of MIC that CC[C@H]1OC(=O)[C@H](C)C(=O)[C@H](C)[C@@H](O[C@@H]2O[C@H](C)C[C@H](N(C)C)[C@H]2O)[C@](C)(OCC#Cc2ccc(-c3cncnc3)s2)C[C@@H](C)C(=O)[C@H](C)[C@H]2NC(=O)O[C@@]21C showed for Nocardia Asteroides ATCC9970 is -1.70

The measured log10 of MIC that CC[C@H]1OC(=O)[C@H](C)C(=O)[C@H](C)[C@@H](O[C@@H]2O[C@H](C)C[C@H](N(C)C)[C@H]2O)[C@](C)(OC/C=C/c2cncc(-c3ccco3)c2)C[C@@H](C)C(=O)[C@H](C)[C@H]2NC(=O)O[C@@]21C showed for Nocardia Asteroides ATCC9970 is -1.30

The measured log10 of MIC that CC[C@H]1OC(=O)[C@H](C)C(=O)[C@H](C)[C@@H](O[C@@H]2O[C@H](C)C[C@H](N(C)C)[C@H]2O)[C@](C)(OCC#Cc2ccc(-c3cc(Cl)cc(Cl)c3)s2)C[C@@H](C)C(=O)[C@H](C)[C@H]2NC(=O)O[C@@]21C showed for Nocardia Asteroides ATCC9970 is -0.11

The measured log10 of MIC that CC[C@H]1OC(=O)[C@H](C)C(=O)[C@H](C)[C@@H](O[C@@H]2O[C@H](C)C[C@H](N(C)C)[C@H]2O)[C@](C)(OC/C=C/c2ccc3ncc(Br)cc3c2)C[C@@H](C)C(=O)[C@H](C)[C@H]2NC(=O)O[C@@]21C showed for Nocardia Asteroides ATCC9970 is -1.30

The measured log10 of MIC that CC[C@H]1OC(=O)[C@H](C)C(=O)[C@H](C)[C@@H](O[C@@H]2O[C@H](C)C[C@H](N(C)C)[C@H]2O)[C@](C)(OCC#Cc2ccc(-c3ncccn3)s2)C[C@@H](C)C(=O)[C@H](C)[C@H]2NC(=O)O[C@@]21C showed for Nocardia Asteroides ATCC9970 is -2.00

The measured log10 of MIC that CC[C@H]1OC(=O)[C@H](C)C(=O)[C@H](C)[C@@H](O[C@@H]2O[C@H](C)C[C@H](N(C)C)[C@H]2O)[C@](C)(OCC#Cc2ccc(-c3cccs3)s2)C[C@@H](C)C(=O)[C@H](C)[C@H]2NC(=O)O[C@@]21C showed for Nocardia Asteroides ATCC9970 is -0.41

The measured log10 of MIC that CC[C@H]1OC(=O)[C@H](C)C(=O)[C@H](C)[C@@H](O[C@@H]2O[C@H](C)C[C@H](N(C)C)[C@H]2O)[C@](C)(OCC#Cc2ccc(-c3nccn3C)s2)C[C@@H](C)C(=O)[C@H](C)[C@H]2NC(=O)O[C@@]21C showed for Nocardia Asteroides ATCC9970 is -2.00

The measured log10 of MIC that CC[C@H]1OC(=O)[C@H](C)C(=O)[C@H](C)[C@@H](O[C@@H]2O[C@H](C)C[C@H](N(C)C)[C@H]2O)[C@](C)(OCC#Cc2ccc(-c3ccc(F)cc3)s2)C[C@@H](C)C(=O)[C@H](C)[C@H]2NC(=O)O[C@@]21C showed for Nocardia Asteroides ATCC9970 is -0.11

The measured log10 of MIC that CC[C@H]1OC(=O)[C@H](C)C(=O)[C@H](C)[C@@H](O[C@@H]2O[C@H](C)C[C@H](N(C)C)[C@H]2O)[C@](C)(OCC#Cc2ccc(-c3ccccn3)s2)C[C@@H](C)C2=NCCN3C(=O)O[C@@]1(C)[C@H]3[C@H]2C showed for Nocardia Asteroides ATCC9970 is -1.70

The measured log10 of MIC that CC[C@H]1OC(=O)[C@H](C)C(=O)[C@H](C)[C@@H](O[C@@H]2O[C@H](C)C[C@H](N(C)C)[C@H]2O)[C@](C)(OC/C=C/c2cnc(-c3ncc(Br)s3)s2)C[C@@H](C)C(=O)[C@H](C)[C@H]2NC(=O)O[C@@]21C showed for Nocardia Asteroides ATCC9970 is -0.41

The measured log10 of MIC that CC[C@H]1OC(=O)[C@H](C)C(=O)[C@H](C)[C@@H](O[C@@H]2O[C@H](C)C[C@H](N(C)C)[C@H]2O)[C@](C)(OCC#Cc2ccc(-c3cncc(C(=O)N(C)C)c3)s2)C[C@@H](C)C(=O)[C@H](C)[C@H]2NC(=O)O[C@@]21C showed for Nocardia Asteroides ATCC9970 is -0.70
